system-name: inactive SHP2 catalytic domain Hillmut (K274E) (Homo sapiens, UniProt Q06124, C459S/K274E)
Construct: SHP2 K274E (Hillmut); 219-528 + C459S; His6 (N)
Sequence (Q06124 219-528 K274E/C459S): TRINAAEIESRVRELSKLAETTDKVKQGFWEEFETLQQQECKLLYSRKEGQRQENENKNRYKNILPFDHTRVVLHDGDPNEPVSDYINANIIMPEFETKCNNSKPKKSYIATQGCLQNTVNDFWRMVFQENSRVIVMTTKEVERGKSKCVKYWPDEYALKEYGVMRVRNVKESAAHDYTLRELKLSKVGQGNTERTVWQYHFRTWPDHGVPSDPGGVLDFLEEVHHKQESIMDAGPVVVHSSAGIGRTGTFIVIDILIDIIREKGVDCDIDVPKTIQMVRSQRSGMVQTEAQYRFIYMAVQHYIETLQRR
run-description: Fluorescence polarization titrations, SHP2 Hillmut
cond: competitive FP titration vs CF-ppIRS1 100 nM, protein fixed; n = 3 technical replicates
reported-property: Kd (µM)

smiles-record	reported-property	test-value
CSCC[C@H](NC(=O)[C@@H]1CCCN1C(=O)[C@H](CCSC)NC(=O)[C@H](Cc1ccc(OP(=O)(O)O)cc1)NC(=O)[C@H](CC(=O)O)NC(=O)CNC(=O)[C@H](CO)NC(=O)CNC(=O)[C@H](CCCCN)NC(=O)[C@H](CCCNC(=N)N)NC(=O)CN)C(=O)N[C@@H](COP(=O)(O)O)C(=O)N1CCC[C@H]1C(=O)N[C@@H](CCCCN)C(=O)N[C@@H](CO)C(=O)O	Kd	2.23
CSCC[C@H](NC(=O)[C@@H]1CCCN1C(=O)[C@H](CCSC)NC(=O)[C@H](Cc1ccc(OP(=O)(O)O)cc1)NC(=O)[C@H](CC(=O)O)NC(=O)CNC(=O)[C@H](CO)NC(=O)CNC(=O)[C@H](CCCCN)NC(=O)[C@H](CCCNC(=N)N)NC(=O)CN)C(=O)N[C@@H](CO)C(=O)N1CCC[C@H]1C(=O)N[C@@H](CCCCN)C(=O)N[C@@H](CO)C(=O)O	Kd	83.9
CSCC[C@H](NC(=O)[C@H](Cc1ccc(OP(=O)(O)O)cc1)NC(=O)[C@H](CC(=O)O)NC(=O)[C@H](CO)NC(=O)[C@H](Cc1c[nH]cn1)NC(=O)[C@H](CC(C)C)NC(=O)[C@H](CC(C)C)NC(=O)[C@H](CCCNC(=N)N)NC(=O)[C@H](CO)NC(=O)[C@@H](N)CCCNC(=N)N)C(=O)N[C@@H](CC(N)=O)C(=O)N[C@@H](CCSC)C(=O)N[C@H](C(=O)N1CCC[C@H]1C(=O)N[C@@H](CCCNC(=N)N)C(=O)N[C@@H](CCCNC(=N)N)C(=O)O)[C@@H](C)O	Kd	54.6
